src = BigSolDB 2.1

- applied-conditions: in ethanol, 308.15 K
measure-name: solubility (mole fraction)

>>> result("N[C@@H](Cc1ccccc1)C(=O)O")
0.00016

###

- applied-conditions: in water, 308.15 K
measure-name: solubility (mole fraction)

>>> result("N[C@@H](Cc1ccccc1)C(=O)O")
0.00348

###

- applied-conditions: in methanol, 293.15 K
measure-name: solubility (mole fraction)

>>> result("N[C@@H](Cc1ccccc1)C(=O)O")
0.000416

###

- applied-conditions: in methanol, 298.15 K
measure-name: solubility (mole fraction)

>>> result("N[C@@H](Cc1ccccc1)C(=O)O")
0.000563

###

- applied-conditions: in ethanol, 303.15 K
measure-name: solubility (mole fraction)

>>> result("N[C@@H](Cc1ccccc1)C(=O)O")
0.000134
